system: HeLa Kyoto; assay: solubility in G1/S (NP-40 vs SDS abundance) (log2 ratio); higher = more soluble; conditions: cell cycle stage: G1/S
Reported values of solubility in G1/S (log2) for individual entries

# example entries with known answers
• MPFPFGKSHKSPADIVKNLKESMAVLEKQDISDKKAEKATEEVSKNLVAMKEILYGTNEKEPQTEAVAQLAQELYNSGLLSTLVADLQLIDFEGKKDVAQIFNNILRRQIGTRTPTVEYICTQQNILFMLLKGYESPEIALNCGIMLRECIRHEPLAKIILWSEQFYDFFRYVEMSTFDIASDAFATFKDLLTRHKLLSAEFLEQHYDRFFSEYEKLLHSENYVTKRQSLKLLGELLLDRHNFTIMTKYISKPENLKLMMNLLRDKSRNIQFEAFHVFKVFVANPNKTQPILDILLKNQAKLIEFLSKFQNDRTEDEQFNDEKTYLVKQIRDLKRPAQQEA [CAB39] = 0.0309
• MFRGLSSWLGLQQPVAGGGQPNGDAPPEQPSETVAESAEEELQQAGDQELLHQAKDFGNYLFNFASAATKKITESVAETAQTIKKSVEEGKIDGIIDKTIIGDFQKEQKKFVEEQHTKKSEAAVPPWVDTNDEETIQQQILALSADKRNFLRDPPAGVQFNFDFDQMYPVALVMLQEDELLSKMRFALVPKLVKEEVFWRNYFYRVSLIKQSAQLTALAAQQQAAGKEEKSNGREQDLPLAEAVRPKTPPVVIKSQLKTQEDEEEISTSPGVSEFVSDAFDACNLNQEDLRKEMEQLVLDKKQEETAVLEEDSADWEKELQQELQEYEVVTESEKRDENWDKEIEKMLQEEN [SYAP1] = 0.391

# ---- query sequence ----
INPUT: GET /values?readout=solubility in G1/S (log2)&system=HeLa Kyoto&item= MGKSCKVVVCGQASVGKTSILEQLLYGNHVVGSEMIETQEDIYVGSIETDRGVREQVRFYDTRGLRDGAELPRHCFSCTDGYVLVYSTDSRESFQRVELLKKEIDKSKDKKEVTIVVLGNKCDLQEQRRVDPDVAQHWAKSEKVKLWEVSVADRRSLLEPFVYLASKMTQPQSKSAFPLSRKNKGSGSLDG [NKIRAS2];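 also: HeLa Kyoto cells arrested at G1/S by double thymidine block, proteins quantified by TMT10plex mass spectrometry in mild NP-40 versus SDS extracts, three biological replicates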
OUTPUT: -0.133

Where do these numbers come from? They come from the supplement of paper PMC5998384.
